test system: SF-295; assay: NCI tumour cell line growth inhibition, 48 h
Calls of active or inactive are those of the source. Cut-off read from the data, not from the text of the source: active = GI50 up to about 1.1 µM and inactive = higher.
Can you answer with just one of these options? class 1 for active, class 0 for inactive

Worked examples, 5 molecules total:
>>> df
                                   molecule  discrete_label
0  C[N+](C)(C)CC(=O)N/N=C(\C(=O)NC1=C(Cl)C(=O)c2ccccc2C1=O)C(C#N)c1nc(-c2ccc([N+](=O)[O-])cc2)cs1 (centres undefined)         class 0
1  NC(CC(=O)O)(Cc1ccccc1)C(=O)O (centres undefined)         class 0
2  Cc1c2cc[n+](C)cc2c(C)c2c1[nH]c1ccc(Oc3ccccc3)cc12         class 1
3  OC1CC(O)O[C@H](c2ccccc2)C1 (some centres undefined)         class 0
4  C/C=C(\C)C(=O)N1c2ccccc2CC1c1c(C)[nH]c2ccccc12 (centres undefined)         class 0

Could you kindly confirm the outcome this assay logged for CCOC(=O)C(CO)c1nc2c([nH]c1=O)c(=O)n(C)c(=O)n2C (centres undefined) ?
class 0

Could you kindly confirm the outcome this assay logged for COc1cc(C2c3cc4c(cc3OC(N3CCOCC3)C2C)OCO4)cc(OC)c1O (centres undefined) ?
class 0

Could you kindly confirm the outcome this assay logged for Cc1c(/C=N/NC(=O)c2cc(Br)cc(Br)c2O)c(=O)n(-c2ccccc2)n1C ?
class 0

Could you kindly confirm the outcome this assay logged for CC12CCC([C@H](Nc3cc(C(F)(F)F)cc(C(F)(F)F)c3)C1=O)C2(C)C (some centres undefined) ?
class 0

Could you kindly confirm the outcome this assay logged for C=CCN1C(=O)CS/C1=N\NC(=O)CSc1nc2ccccc2c(=O)n1CC ?
class 0

Could you kindly confirm the outcome this assay logged for Cc1ccc(S(=O)(=O)ON/N=C2/C3OC3[C@@H]3CCCC[C@H]23)cc1 (some centres undefined) ?
class 0

Could you kindly confirm the outcome this assay logged for N/C(=C\c1ccc(OCc2ccccc2)c(OCc2ccccc2)c1[N+](=O)[O-])C(=O)O ?
class 0

Could you kindly confirm the outcome this assay logged for CSc1cc(Cl)c(C)cc1S(=O)(=O)NC(=O)NNc1ccc(C)cc1 ?
class 0

Could you kindly confirm the outcome this assay logged for COc1cc2c3c(c1OCc1ccccc1)NCCC3NCC2 (centres undefined) ?
class 0

Could you kindly confirm the outcome this assay logged for O=C(C1OC1c1cccc([N+](=O)[O-])c1)C12CC3CC(CC(C3)C1)C2 (centres undefined) ?
class 0

Could you kindly confirm the outcome this assay logged for Oc1cnc2c(O)cccc2c1 ?
class 0

Could you kindly confirm the outcome this assay logged for CCOC(=O)Nc1cc2c(c(N)n1)N=C(c1ccccc1)CN2 ?
class 1

Could you kindly confirm the outcome this assay logged for O=C(O)c1cccc(F)c1C(=O)c1ccc2ccccc2c1 ?
class 0

Could you kindly confirm the outcome this assay logged for COC(=O)C1(CCC(=O)N(C)c2ccccc2)NNC2C(=O)N(c3ccccc3)C(=O)C21 (centres undefined) ?
class 0

Where these numbers come from: ChEMBL document CHEMBL1201862
